// provenance: patent US20240238223A1

Test system: A549 cells
Assay: Growth inhibition of parental NSCLC cells
Format: cell-based, human
Conditions: Homo sapiens; A549 parental cells; read-out: GI50 ± SD
Method: The growth inhibition rate GI50 was calculated by GraphPadPrism5.
readout_kind: GI50 (nM)
# unit: nM | format: bare number

Exam item: Please indicate GI50 recorded for COc1cc2c(c(OC)c1OC)-c1ccc(OC)c(=O)cc1[C@@H](NC(C)=O)CC2 [Colchicine]
Marked response: 38.4

Exam item: Please indicate GI50 recorded for CC(=O)O[C@H]1C(=O)[C@@]2(C)[C@H]([C@H](OC(=O)c3ccccc3)[C@]3(O)C[C@H](OC(=O)[C@H](O)[C@@H](NC(=O)c4ccccc4)c4ccccc4)C(C)=C1C3(C)C)[C@]1(OC(C)=O)CO[C@@H]1C[C@@H]2O [Paclitaxel]
Marked response: 23.1

Exam item: Please indicate GI50 recorded for CC[C@]1(O)C[C@H]2CN(CCc3c([nH]c4ccccc34)[C@@](C(=O)OC)(c3cc4c(cc3OC)N(C=O)[C@H]3[C@@](O)(C(=O)OC)[C@H](OC(C)=O)[C@]5(CC)C=CCN6CC[C@]43[C@@H]65)C2)C1 [Vincristine]
Marked response: 45.6

Exam item: Please indicate GI50 recorded for CNc1ccc2c(cc1=O)C(NC(C)=O)CCc1cc(OC)c(OC)c(OC)c1-2 (stereo not shown) [Methylaminocolchicine]
Marked response: 6.88
